- Condition parameters: 313 K; 101.33 kPa; Liquid; Capillary tube (Ostwald / Ubbelohde) method
Parameter measured: viscosity (mPa·s)
Use mPa·s as the unit, but write only the number.

# example entries with known answers
CCCCC[N+](CC)(CC)CC.O=S(=O)([N-]S(=O)(=O)C(F)(F)F)C(F)(F)F [triethylpentylammonium bis(trifluoromethylsulfonyl)imide]    71.86
CCCCCCCCCCCC[N+](CC)(CC)CC.O=S(=O)([N-]S(=O)(=O)C(F)(F)F)C(F)(F)F    137.8
CCCCCCCC[N+](CC)(CC)CC.O=S(=O)([N-]S(=O)(=O)C(F)(F)F)C(F)(F)F [triethyloctylammonium bis[(trifluoromethyl)sulfonyl]imide]    96.76

Prompt: Name the recorded viscosity of the compound listed here: CCCCCC[N+](CC)(CC)CC.O=S(=O)([N-]S(=O)(=O)C(F)(F)F)C(F)(F)F [triethylhexylammonium bis((trifluoromethyl)sulfonyl)imide]
Completion: 81.64
